Origin of values: patent US20070155803A1

Target: CYP3A4 (Homo sapiens, UniProt P08684)
Sequence (P08684 whole entry): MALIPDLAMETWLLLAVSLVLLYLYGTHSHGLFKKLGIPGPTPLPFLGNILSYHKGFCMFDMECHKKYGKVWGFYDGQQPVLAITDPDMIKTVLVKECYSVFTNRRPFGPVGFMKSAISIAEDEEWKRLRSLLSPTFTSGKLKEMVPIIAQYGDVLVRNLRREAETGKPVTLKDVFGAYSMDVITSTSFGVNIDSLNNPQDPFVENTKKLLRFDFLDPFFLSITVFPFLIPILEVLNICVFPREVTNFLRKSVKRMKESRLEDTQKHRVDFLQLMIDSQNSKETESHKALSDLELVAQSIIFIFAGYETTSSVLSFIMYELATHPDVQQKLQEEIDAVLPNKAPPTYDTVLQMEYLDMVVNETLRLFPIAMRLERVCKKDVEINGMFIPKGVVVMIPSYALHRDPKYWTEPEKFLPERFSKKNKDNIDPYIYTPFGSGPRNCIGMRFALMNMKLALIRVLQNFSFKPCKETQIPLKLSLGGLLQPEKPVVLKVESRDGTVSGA
pIC50: −log10 of the molar value. Square brackets hold non-standard residues; d marks the D form. Peptide text beside a SMILES is read from it. Phe(3-F) = N[C@@H](Cc1cccc(F)c1)C(=O)O; hPhe = N[C@@H](CCc1ccccc1)C(=O)O; Abu = CC[C@H](N)C(=O)O; azaGly = NNC(=O)O

molecule	pIC50
CC[C@H](N)C(=O)NNC(=O)N[C@@H](CCc1ccccc1)C(=O)N[C@@H](Cc1cccc(F)c1)C(N)=O [Example 11] (H-[Abu][azaGly][hPhe][Phe(3-F)]-NH2)	6.22

###

Biological target: CYP2C9 (Homo sapiens, UniProt P11712)
Sequence (P11712 whole entry): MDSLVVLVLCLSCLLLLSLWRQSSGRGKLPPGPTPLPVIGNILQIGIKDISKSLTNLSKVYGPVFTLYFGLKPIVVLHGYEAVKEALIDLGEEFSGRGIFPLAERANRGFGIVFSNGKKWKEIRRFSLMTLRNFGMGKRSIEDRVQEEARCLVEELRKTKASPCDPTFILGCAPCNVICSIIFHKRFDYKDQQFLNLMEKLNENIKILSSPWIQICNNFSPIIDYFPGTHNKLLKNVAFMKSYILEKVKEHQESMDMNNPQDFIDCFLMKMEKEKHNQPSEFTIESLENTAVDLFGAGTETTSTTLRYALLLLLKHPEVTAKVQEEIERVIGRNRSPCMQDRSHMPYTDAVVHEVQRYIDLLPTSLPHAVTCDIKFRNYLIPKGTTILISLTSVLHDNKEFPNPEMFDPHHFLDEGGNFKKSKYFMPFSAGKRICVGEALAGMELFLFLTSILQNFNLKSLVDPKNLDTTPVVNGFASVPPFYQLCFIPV
Square brackets hold non-standard residues; d marks the D form. Peptide text beside a SMILES is read from it. Phe(3-F) = N[C@@H](Cc1cccc(F)c1)C(=O)O; hPhe = N[C@@H](CCc1ccccc1)C(=O)O; Abu = CC[C@H](N)C(=O)O; azaGly = NNC(=O)O

molecule	assayed.target	IC50
CC[C@H](N)C(=O)NNC(=O)N[C@@H](CCc1ccccc1)C(=O)N[C@@H](Cc1cccc(F)c1)C(N)=O [Example 11] (H-[Abu][azaGly][hPhe][Phe(3-F)]-NH2)	CYP2C9 (Homo sapiens, UniProt P11712)	> 20 µM
